experimental-target: native human MET on living cells (human, UniProt P08581 25-1390)
Sequence (P08581 25-1390): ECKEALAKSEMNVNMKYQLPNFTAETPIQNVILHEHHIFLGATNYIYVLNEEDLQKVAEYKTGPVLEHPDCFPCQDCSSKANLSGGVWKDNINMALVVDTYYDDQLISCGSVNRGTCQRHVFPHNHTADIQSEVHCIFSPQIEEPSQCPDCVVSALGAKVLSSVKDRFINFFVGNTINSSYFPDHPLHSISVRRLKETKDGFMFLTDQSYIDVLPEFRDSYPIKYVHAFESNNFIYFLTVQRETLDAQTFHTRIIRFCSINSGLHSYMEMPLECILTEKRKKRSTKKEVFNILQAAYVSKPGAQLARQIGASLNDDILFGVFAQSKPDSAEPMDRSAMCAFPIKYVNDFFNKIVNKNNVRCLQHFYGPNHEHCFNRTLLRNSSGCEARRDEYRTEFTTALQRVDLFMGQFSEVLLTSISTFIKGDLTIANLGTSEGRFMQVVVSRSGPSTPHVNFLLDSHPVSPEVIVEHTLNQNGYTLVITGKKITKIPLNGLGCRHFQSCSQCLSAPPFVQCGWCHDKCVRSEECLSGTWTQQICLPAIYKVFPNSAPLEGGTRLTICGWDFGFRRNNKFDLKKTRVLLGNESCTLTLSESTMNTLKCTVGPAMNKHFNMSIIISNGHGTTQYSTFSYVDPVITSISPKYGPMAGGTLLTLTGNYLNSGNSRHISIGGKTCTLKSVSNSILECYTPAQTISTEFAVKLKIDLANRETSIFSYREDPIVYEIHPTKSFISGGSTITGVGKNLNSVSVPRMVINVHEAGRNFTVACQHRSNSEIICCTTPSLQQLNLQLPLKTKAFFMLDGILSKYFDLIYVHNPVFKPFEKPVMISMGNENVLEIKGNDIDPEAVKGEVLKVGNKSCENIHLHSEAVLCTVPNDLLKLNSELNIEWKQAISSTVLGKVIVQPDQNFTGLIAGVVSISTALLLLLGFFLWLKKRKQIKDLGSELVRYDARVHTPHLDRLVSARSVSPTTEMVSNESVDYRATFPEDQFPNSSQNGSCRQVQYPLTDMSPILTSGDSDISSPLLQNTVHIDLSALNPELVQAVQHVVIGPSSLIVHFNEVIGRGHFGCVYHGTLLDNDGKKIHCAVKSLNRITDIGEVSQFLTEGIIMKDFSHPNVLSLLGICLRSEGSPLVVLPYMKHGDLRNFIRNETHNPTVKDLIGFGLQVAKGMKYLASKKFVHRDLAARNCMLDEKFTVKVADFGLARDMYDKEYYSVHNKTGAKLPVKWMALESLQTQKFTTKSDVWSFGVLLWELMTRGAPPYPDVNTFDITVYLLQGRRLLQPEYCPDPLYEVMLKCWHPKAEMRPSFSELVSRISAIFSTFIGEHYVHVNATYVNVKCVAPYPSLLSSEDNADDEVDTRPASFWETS
experimental-details: cell-based or functional assay

binder	LOC br. m. (branch n.)
71G2 llama-mouse chimeric mAb (mouse IgG1/lambda) (antibody, V domains shown) VH: EVQLQESGGGLVQPGGSLRLSCAASGFTFSIYDMSWVRQAPGKGLEWVSTINSDGSSTSYVDSVKGRFTISRDNAKNTLYLQMNSLKPEDTAVYYCAKVYGSTWDVGPMGYGMDYWGKGTLVTVSS VL: SSALTQPSALSVSLGQTARITCQGGSLGSSYAHWYQQKPGQAPVLVIYGDDSRPSGIPERFSGSSSGGTATLTISGAQAEDEDDYYCQSTDSSGNTVFGGGTRLTVLG	29.8 branches per spheroid
71G3 llama-mouse chimeric mAb (mouse IgG1/lambda) (antibody, V domains shown) VH: QVQLVESGGGLVQPGGSLRVSCAASGFTFSTYYMSWVRQAPGKGLEWVSDIRTDGGTYYADSVKGRFTMSRDNAKNTLYLQMNSLKPEDTALYYCARTRIFPSGYDYWGQGTQVTVSS VL: QAVVTQEPSLSVSPGGTVTLTCGLSSGSVTTSNYPGWFQQTPGQAPRTLIYNTNSRHSGVPSRFSGSISGNKAALTIMGAQPEDEADYYCSLYPGSTTVFGGGTHLTVLG	20.8 branches per spheroid
71G3 chimeric llama-human IgG1 mAb (antibody, V domains shown, human IgG1 CH1-CH2-CH3 and human CL lambda; also called 71G3 Human IgG1/lambda) VH: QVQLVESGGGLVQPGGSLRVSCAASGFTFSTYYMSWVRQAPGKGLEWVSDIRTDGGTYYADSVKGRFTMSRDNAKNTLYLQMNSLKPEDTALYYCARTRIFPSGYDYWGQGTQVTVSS VL: QAVVTQEPSLSVSPGGTVTLTCGLSSGSVTTSNYPGWFQQTPGQAPRTLIYNTNSRHSGVPSRFSGSISGNKAALTIMGAQPEDEADYYCSLYPGSTTVFGGGTHLTVL	22.3 branches per spheroid
71D6 llama-mouse chimeric mAb (mouse IgG1/lambda) (antibody, V domains shown, also called 71D6 Mouse IgG1/lambda) VH: ELQLVESGGGLVQPGGSLRLSCAASGFTFSSYGMSWVRQAPGKGLEWVSAINSYGGSTSYADSVKGRFTISRDNAKNTLYLQMNSLKPEDTAVYYCAKEVRADLSRYNDYESYDYWGQGTQVTVSS VL: QPVLNQPSALSVTLGQTAKITCQGGSLGARYAHWYQQKPGQAPVLVIYDDDSRPSGIPERFSGSSSGGTATLTISGAQAEDEGDYYCQSADSSGSVFGGGTHLTVLG	30.4 branches per spheroid
71G2 chimeric llama-human IgG1 mAb (antibody, V domains shown, human IgG1 CH1-CH2-CH3 and human CL lambda; also called 71G2 Human IgG1/lambda) VH: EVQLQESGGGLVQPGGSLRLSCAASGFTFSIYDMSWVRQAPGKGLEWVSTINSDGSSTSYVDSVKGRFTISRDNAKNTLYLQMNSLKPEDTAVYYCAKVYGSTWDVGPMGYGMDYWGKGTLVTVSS VL: SSALTQPSALSVSLGQTARITCQGGSLGSSYAHWYQQKPGQAPVLVIYGDDSRPSGIPERFSGSSSGGTATLTISGAQAEDEDDYYCQSTDSSGNTVFGGGTRLTVL	31.7 branches per spheroid
71D6 chimeric llama-human IgG1 mAb (antibody, V domains shown, human IgG1 CH1-CH2-CH3 and human CL lambda; also called 71D6 Human IgG1/lambda) VH: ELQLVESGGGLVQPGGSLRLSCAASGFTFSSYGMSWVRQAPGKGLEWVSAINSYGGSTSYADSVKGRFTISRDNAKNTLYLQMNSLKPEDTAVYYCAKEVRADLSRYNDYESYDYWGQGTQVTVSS VL: QPVLNQPSALSVTLGQTAKITCQGGSLGARYAHWYQQKPGQAPVLVIYDDDSRPSGIPERFSGSSSGGTATLTISGAQAEDEGDYYCQSADSSGSVFGGGTHLTVL	32.7 branches per spheroid
